Please go through the items and note down their GI50 at 48 h.
- protocol.details: Cytotoxicity against human DU145 cells assessed as growth inhibition after 48 hrs by SRB assay method
- Type: cell-based, DU-145
Express the result in µg/mL but write the number alone.

Asked: Look up GI50 at 48 h of "Fc1ccc(-c2nc3c(NCCN4CCOCC4)nccn3c2-c2ccncc2)cc1" and report it.
Given back: 39

Asked: Look up GI50 at 48 h of "O=c1[nH]cc(F)c(=O)[nH]1" and report it.
Given back: 1

Asked: Look up GI50 at 48 h of "CN(C)CCNc1nccn2c(-c3ccncc3)c(-c3ccccc3)nc12" and report it.
Given back: 47

Asked: Look up GI50 at 48 h of "CN(C)CCNc1nccn2c(I)c(-c3ccccc3)nc12" and report it.
Given back: 20

Asked: Look up GI50 at 48 h of "Ic1c(-c2ccccc2)nc2c(NCCN3CCOCC3)nccn12" and report it.
Given back: 47

Asked: Look up GI50 at 48 h of "CN(C)CCNc1nccn2c(I)c(-c3ccc(F)cc3)nc12" and report it.
Given back: 13

Asked: Look up GI50 at 48 h of "CN(C)c1nccn2c(I)c(-c3ccc(F)cc3)nc12" and report it.
Given back: 40

Asked: Look up GI50 at 48 h of "CN(C)CCNc1nccn2c(-c3ccncc3)c(-c3ccc(F)cc3)nc12" and report it.
Given back: 52

Asked: Look up GI50 at 48 h of "CN(C)c1nccn2c(-c3ccncc3)c(-c3ccccc3)nc12" and report it.
Given back: 90

Asked: Look up GI50 at 48 h of "CN(C)c1nccn2c(I)c(-c3ccccc3)nc12" and report it.
Given back: 39

* * *

- protocol.details: Cytotoxicity against BALB/c mouse 3T3 clone A31 cells after 48 hrs by SRB assay method
- Format: cell-based
- protocol.conditions: A31, 48 h
pIC50: −log10 of the molar value.
Label scheme for pIC50: lower than 4 is Criterion not met, 4 and above is Criterion met.

Asked: Has "CN(C)c1nccn2c(-c3ccncc3)c(-c3ccccc3)nc12" a recorded pIC50 greater than or equal to 4?
Given back: Criterion not met

Asked: Has "Fc1ccc(-c2nc3c(NCCN4CCOCC4)nccn3c2-c2ccncc2)cc1" a recorded pIC50 greater than or equal to 4?
Given back: Criterion met

Asked: Has "CN(C)CCNc1nccn2c(I)c(-c3ccc(F)cc3)nc12" a recorded pIC50 greater than or equal to 4?
Given back: Criterion met

Asked: Has "CN(C)c1nccn2c(I)c(-c3ccccc3)nc12" a recorded pIC50 greater than or equal to 4?
Given back: Criterion met

Asked: Has "Ic1c(-c2ccccc2)nc2c(NCCN3CCOCC3)nccn12" a recorded pIC50 greater than or equal to 4?
Given back: Criterion not met

* * *

- protocol.details: Inhibition of Leishmania major CK1.2 using RRKHAAIGpSAYSITA as substrate and [gamma-33P]ATP after 30 mins by scintillation counting
pIC50: −log10 of the molar value.
quantity.name: pIC50

Asked: Look up pIC50 of "c1ccc(-c2nc3c(NCCN4CCOCC4)nccn3c2-c2ccncc2)cc1" and report it.
Given back: 5.62

Asked: Look up pIC50 of "CN(C)CCNc1nccn2c(-c3ccncc3)c(-c3ccc(F)cc3)nc12" and report it.
Given back: 6.28

Asked: Look up pIC50 of "c1ccc(-c2nc3cnccn3c2-c2ccncc2)cc1" and report it.
Given back: 5.89

Asked: Look up pIC50 of "Clc1cc(Cl)cc(-c2c(-c3ccccc3)nc3cnccn23)c1" and report it.
Given back: < 5.00

Asked: Look up pIC50 of "O=[N+]([O-])c1ccc(-c2c(-c3ccccc3)nc3cnccn23)cc1" and report it.
Given back: < 5.00

Asked: Look up pIC50 of "CN(C)CCNc1nccn2c(I)c(-c3ccccc3)nc12" and report it.
Given back: < 5.00

Asked: Look up pIC50 of "Fc1ccc(-c2nc3c(NCCN4CCOCC4)nccn3c2I)cc1" and report it.
Given back: < 5.00

Asked: Look up pIC50 of "Ic1c(-c2ccccc2)nc2c(NCCN3CCOCC3)nccn12" and report it.
Given back: < 5.00

Asked: Look up pIC50 of "CN(C)c1nccn2c(I)c(-c3ccc(F)cc3)nc12" and report it.
Given back: < 5.00

Asked: Look up pIC50 of "CCOC(=O)c1ccc(-c2c(-c3ccccc3)nc3cnccn23)cc1" and report it.
Given back: < 5.00

Asked: Look up pIC50 of "c1ccc(-c2nc3cnccn3c2-c2ccccc2)cc1" and report it.
Given back: < 5.00
